Kd values by entry
Target: T1, mTet3-CXXC Q82A (Mus musculus (mouse), UniProt Q8BG87 51-96, Q82A)
T1 chain: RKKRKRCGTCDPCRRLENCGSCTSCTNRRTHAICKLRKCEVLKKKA
Assay: ITC
Field: numeric (nM). Do not append units.

{"binder": "CCG DNA (dsDNA) DNA 1: GAATCCGGATTC DNA 2: GAATCCGGATTC", "unit_name": "nM", "Kd": 2380}

Query binder follows.
Which Kd value is on record for CcaCG DNA (dsDNA, 5-carboxyl-dC at position 6 of both strands) DNA 1: GAATCCGGATTC DNA 2: GAATCCGGATTC ? 970
